Source listed as ChEMBL document CHEMBL1132104.

# procedure-summary: Inhibitory activity against IMP-1 metallo-beta-lactamase (MBL)
pIC50: −log10 of the molar value.
parameter: pIC50

Study these solved cases before continuing.
- compound-structure: "COc1cc(OC)c(C(=O)N[C@H](C)C(=O)S[C@H](Cc2ccc(-c3ccccc3)cc2)C(=O)O)c(OC)c1"
  pIC50: 4.34
- compound-structure: "CCCCC(=O)N[C@H](C)C(=O)S[C@H](Cc1ccc(-c2ccccc2)cc1)C(=O)O"
  pIC50: 5.32
- compound-structure: "O=C(S[C@@H](Cc1ccccc1)C(=O)O)c1ccccc1"
  pIC50: 5.60

a: C[C@@H](NC(=O)Cc1ccc(O)cc1)C(=O)S[C@H](Cc1ccc(-c2ccccc2)cc1)C(=O)O
b: CC(=O)N[C@H](C)C(=O)S[C@H](Cc1ccc(-c2ccccc2)cc1)C(=O)O
Could you determine which record has the numerically smaller pIC50? Candidates: a and b Your choice should be expressed through its label.
b
